Origin of measurements: ChEMBL document CHEMBL1142988

Answer each item with its documented pKd.
Biological target: Glutamate receptor ionotropic, kainate 1 (Rattus norvegicus, UniProt P22756)
Sequence (P22756 whole entry): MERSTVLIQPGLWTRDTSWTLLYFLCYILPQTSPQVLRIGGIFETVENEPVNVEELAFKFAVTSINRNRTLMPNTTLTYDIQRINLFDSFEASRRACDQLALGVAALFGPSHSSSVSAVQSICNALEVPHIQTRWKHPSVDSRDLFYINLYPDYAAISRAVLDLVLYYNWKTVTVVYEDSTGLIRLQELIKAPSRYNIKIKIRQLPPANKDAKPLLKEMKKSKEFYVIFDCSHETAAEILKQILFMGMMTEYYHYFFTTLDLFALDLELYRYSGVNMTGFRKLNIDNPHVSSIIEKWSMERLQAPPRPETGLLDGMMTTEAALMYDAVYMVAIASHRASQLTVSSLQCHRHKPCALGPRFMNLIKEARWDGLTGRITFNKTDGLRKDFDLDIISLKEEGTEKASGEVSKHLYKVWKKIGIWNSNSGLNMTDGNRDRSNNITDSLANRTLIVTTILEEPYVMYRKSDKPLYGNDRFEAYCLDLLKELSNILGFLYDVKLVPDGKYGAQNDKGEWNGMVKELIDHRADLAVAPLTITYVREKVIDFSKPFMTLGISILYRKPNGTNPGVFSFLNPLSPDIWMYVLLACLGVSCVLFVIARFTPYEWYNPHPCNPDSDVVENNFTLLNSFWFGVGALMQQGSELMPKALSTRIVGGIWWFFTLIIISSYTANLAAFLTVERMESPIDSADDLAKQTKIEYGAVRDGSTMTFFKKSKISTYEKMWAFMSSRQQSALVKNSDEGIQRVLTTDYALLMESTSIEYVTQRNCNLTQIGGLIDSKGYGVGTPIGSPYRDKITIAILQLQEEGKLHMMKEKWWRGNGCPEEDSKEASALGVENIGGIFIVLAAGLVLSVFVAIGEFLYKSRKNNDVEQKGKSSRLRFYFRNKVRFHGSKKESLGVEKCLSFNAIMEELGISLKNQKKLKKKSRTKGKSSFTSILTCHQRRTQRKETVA
Assay: Activity at native GLUK5 kainate receptor assessed as antagonism of kainite-induced depolarization of neonatal non-anaesthetised rat dorsal root fibres
// scale note: pKd = -log10(conc_M); give the bare number

Value of measured pKd for the entry Cc1cn(C[C@H](N)C(=O)O)c(=O)n(Cc2ccsc2C(=O)O)c1=O : 7.74

Value of measured pKd for the entry N[C@@H](Cn1cc(Br)c(=O)n(Cc2ccsc2C(=O)O)c1=O)C(=O)O : 7.60

Value of measured pKd for the entry Cc1cn(C[C@H](N)C(=O)O)c(=O)n(Cc2cc(-c3ccccc3)sc2C(=O)O)c1=O : 7.92

Value of measured pKd for the entry N[C@@H](Cn1ccc(=O)n(Cc2ccoc2C(=O)O)c1=O)C(=O)O : 5.73

Value of measured pKd for the entry N[C@@H](Cn1cc(F)c(=O)n(Cc2ccccc2C(=O)O)c1=O)C(=O)O : 6.45

Value of measured pKd for the entry Cc1cn(C[C@H](N)C(=O)O)c(=O)n(Cc2c(C(=O)O)sc(Br)c2Br)c1=O : 8.00

Value of measured pKd for the entry Cc1cn(C[C@H](N)C(=O)O)c(=O)n(Cc2ccccc2C(=O)O)c1=O : 7.64

Value of measured pKd for the entry N[C@@H](Cn1ccc(=O)n(Cc2ccsc2C(=O)O)c1=O)C(=O)O : 6.98

Value of measured pKd for the entry Cc1cn(C[C@H](N)C(=O)O)c(=O)n(Cc2ccoc2C(=O)O)c1=O : 7.10

Value of measured pKd for the entry N[C@@H](Cn1cc(C(F)(F)F)c(=O)n(Cc2ccsc2C(=O)O)c1=O)C(=O)O : 7.26

Value of measured pKd for the entry N#Cc1cc2c(cc1[N+](=O)[O-])=NC(=O)C(=O)N=2 : 5.86

Value of measured pKd for the entry N[C@@H](Cn1cc(Br)c(=O)n(Cc2ccccc2C(=O)O)c1=O)C(=O)O : 6.99

* * *

Assay: Antagonist activity at native AMPA receptor assessed as fDR-VRP reduction of neonatal rat spinal cord motorneurones
Format: functional
Answer each item with its documented IC50.
Write the value in µM as a bare number.

Value of measured IC50 for the entry N[C@@H](Cn1cc(I)c(=O)n(Cc2ccccc2C(=O)O)c1=O)C(=O)O : 74.1

Value of measured IC50 for the entry Cc1cn(C[C@H](N)C(=O)O)c(=O)n(Cc2ccoc2C(=O)O)c1=O : 25.1

Value of measured IC50 for the entry N[C@@H](Cn1cc(Br)c(=O)n(Cc2ccccc2C(=O)O)c1=O)C(=O)O : 63.9

* * *

Target: UniProt P42262
Sequence (P42262 whole entry): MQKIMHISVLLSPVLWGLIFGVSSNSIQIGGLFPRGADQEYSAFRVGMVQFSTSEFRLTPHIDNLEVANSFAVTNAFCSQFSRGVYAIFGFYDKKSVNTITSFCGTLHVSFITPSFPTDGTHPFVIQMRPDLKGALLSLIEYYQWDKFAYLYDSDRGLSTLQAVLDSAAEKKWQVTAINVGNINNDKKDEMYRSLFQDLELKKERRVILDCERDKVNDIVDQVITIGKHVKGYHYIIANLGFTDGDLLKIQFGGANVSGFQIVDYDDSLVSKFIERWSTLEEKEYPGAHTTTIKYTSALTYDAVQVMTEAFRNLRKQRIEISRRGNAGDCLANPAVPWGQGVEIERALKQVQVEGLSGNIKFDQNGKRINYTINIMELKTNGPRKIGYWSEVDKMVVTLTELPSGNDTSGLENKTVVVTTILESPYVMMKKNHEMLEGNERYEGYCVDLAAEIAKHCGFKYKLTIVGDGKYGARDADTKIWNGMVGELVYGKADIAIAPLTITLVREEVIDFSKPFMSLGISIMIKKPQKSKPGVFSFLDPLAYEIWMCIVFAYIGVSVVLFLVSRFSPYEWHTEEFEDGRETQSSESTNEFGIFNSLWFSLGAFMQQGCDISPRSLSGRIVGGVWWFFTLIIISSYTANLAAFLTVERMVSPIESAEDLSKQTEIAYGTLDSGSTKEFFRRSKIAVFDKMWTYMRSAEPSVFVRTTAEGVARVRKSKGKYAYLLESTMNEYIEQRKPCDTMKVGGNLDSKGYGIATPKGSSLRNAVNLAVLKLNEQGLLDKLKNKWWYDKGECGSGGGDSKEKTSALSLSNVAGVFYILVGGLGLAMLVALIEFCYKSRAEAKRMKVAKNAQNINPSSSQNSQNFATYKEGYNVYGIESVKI
Experiment: Antagonist activity at human recombinant GLUA2-AMPA receptor expressed in HEK293 cells assessed as inhibition of glutamate-stimulated calcium influx by FLIPR assay
pIC50: −log10 of the molar value.
Answer each item with its documented pIC50.

// pIC50 (UniProt P42262) for Cc1cn(C[C@H](N)C(=O)O)c(=O)n(Cc2cc(-c3ccccc3)sc2C(=O)O)c1=O = < 4.00

// pIC50 (UniProt P42262) for Cc1cn(C[C@H](N)C(=O)O)c(=O)n(Cc2ccsc2C(=O)O)c1=O = < 4.00

// pIC50 (UniProt P42262) for N[C@@H](Cn1ccc(=O)n(Cc2ccsc2C(=O)O)c1=O)C(=O)O = < 4.00

// pIC50 (UniProt P42262) for N[C@@H](Cn1ccc(=O)n(Cc2ccccc2C(=O)O)c1=O)C(=O)O = < 3.52

* * *

Molecular target: Glutamate receptor ionotropic, kainate 1 (Homo sapiens)
Assay: Antagonist activity at human recombinant GLUK5/GLUK2 expressed in HEK293 cells assessed as inhibition of glutamate-stimulated calcium influx by FLIPR assay
Assay type: functional, cell-based
Answer each item with its documented Kb.
Write the value in nM as a bare number.

Value of measured Kb for the entry Cc1cn(C[C@H](N)C(=O)O)c(=O)n(Cc2ccsc2C(=O)O)c1=O : 8

Value of measured Kb for the entry N[C@@H](Cn1ccc(=O)n(Cc2ccsc2C(=O)O)c1=O)C(=O)O : 180

Value of measured Kb for the entry Cc1cn(C[C@H](N)C(=O)O)c(=O)n(Cc2cc(-c3ccccc3)sc2C(=O)O)c1=O : 5

Value of measured Kb for the entry N[C@@H](Cn1ccc(=O)n(Cc2ccccc2C(=O)O)c1=O)C(=O)O : 1000

* * *

Molecular target: UniProtKB Q13002
Sequence (Q13002 whole entry): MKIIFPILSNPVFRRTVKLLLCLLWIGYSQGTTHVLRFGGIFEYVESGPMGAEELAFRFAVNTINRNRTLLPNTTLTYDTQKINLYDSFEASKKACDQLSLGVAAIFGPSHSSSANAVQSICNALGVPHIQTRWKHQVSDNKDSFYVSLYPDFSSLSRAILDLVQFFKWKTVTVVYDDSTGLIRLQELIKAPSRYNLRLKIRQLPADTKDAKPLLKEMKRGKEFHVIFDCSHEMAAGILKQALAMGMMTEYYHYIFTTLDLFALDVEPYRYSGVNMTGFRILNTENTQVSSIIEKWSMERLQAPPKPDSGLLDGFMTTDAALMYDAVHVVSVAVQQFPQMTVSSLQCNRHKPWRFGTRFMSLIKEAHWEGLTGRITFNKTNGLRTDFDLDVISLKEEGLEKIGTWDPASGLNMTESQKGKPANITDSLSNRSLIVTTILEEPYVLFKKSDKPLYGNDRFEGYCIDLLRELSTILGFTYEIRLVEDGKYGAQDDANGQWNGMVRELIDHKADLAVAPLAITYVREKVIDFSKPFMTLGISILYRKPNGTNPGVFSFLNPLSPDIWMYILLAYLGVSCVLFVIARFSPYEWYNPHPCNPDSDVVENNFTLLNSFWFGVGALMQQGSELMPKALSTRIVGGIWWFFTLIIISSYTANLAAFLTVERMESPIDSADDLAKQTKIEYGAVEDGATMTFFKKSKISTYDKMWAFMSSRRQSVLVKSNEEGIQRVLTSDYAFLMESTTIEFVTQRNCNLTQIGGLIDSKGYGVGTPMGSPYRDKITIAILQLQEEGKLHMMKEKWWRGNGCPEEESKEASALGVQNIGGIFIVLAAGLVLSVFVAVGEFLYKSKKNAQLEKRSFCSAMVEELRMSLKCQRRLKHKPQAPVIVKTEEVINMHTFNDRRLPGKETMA
Experiment: Antagonist activity at human recombinant GLUK6 expressed in HEK293 cells assessed as inhibition of glutamate-stimulated calcium influx by FLIPR assay
Answer each item with its documented IC50.

Value of measured IC50 for the entry Cc1cn(C[C@H](N)C(=O)O)c(=O)n(Cc2ccsc2C(=O)O)c1=O : > 100 µM

Value of measured IC50 for the entry Cc1cn(C[C@H](N)C(=O)O)c(=O)n(Cc2cc(-c3ccccc3)sc2C(=O)O)c1=O : > 100 µM

Value of measured IC50 for the entry N[C@@H](Cn1ccc(=O)n(Cc2ccccc2C(=O)O)c1=O)C(=O)O : > 300 µM

Value of measured IC50 for the entry N[C@@H](Cn1ccc(=O)n(Cc2ccsc2C(=O)O)c1=O)C(=O)O : > 100 µM

* * *

Test: Activity at native AMPA receptor assessed as antagonism of (S)-5-fluoriwillardiine-induced depolarization of neonatal rat spinal cord motorneurones
Format: functional
QUANTITY_KIND: Kd
Your answer should be a number followed by the unit of measure.

Value of measured Kd for the entry Cc1cn(C[C@H](N)C(=O)O)c(=O)n(Cc2cc(-c3ccccc3)sc2C(=O)O)c1=O : 108 µM

Value of measured Kd for the entry N[C@@H](Cn1ccc(=O)n(Cc2ccsc2C(=O)O)c1=O)C(=O)O : 71.4 µM

Value of measured Kd for the entry Cc1cn(C[C@H](N)C(=O)O)c(=O)n(Cc2ccsc2C(=O)O)c1=O : 83.4 µM

* * *

Biological target: Glutamate receptor ionotropic, kainate 1 (Homo sapiens) (UniProt P39086)
Sequence (P39086 whole entry): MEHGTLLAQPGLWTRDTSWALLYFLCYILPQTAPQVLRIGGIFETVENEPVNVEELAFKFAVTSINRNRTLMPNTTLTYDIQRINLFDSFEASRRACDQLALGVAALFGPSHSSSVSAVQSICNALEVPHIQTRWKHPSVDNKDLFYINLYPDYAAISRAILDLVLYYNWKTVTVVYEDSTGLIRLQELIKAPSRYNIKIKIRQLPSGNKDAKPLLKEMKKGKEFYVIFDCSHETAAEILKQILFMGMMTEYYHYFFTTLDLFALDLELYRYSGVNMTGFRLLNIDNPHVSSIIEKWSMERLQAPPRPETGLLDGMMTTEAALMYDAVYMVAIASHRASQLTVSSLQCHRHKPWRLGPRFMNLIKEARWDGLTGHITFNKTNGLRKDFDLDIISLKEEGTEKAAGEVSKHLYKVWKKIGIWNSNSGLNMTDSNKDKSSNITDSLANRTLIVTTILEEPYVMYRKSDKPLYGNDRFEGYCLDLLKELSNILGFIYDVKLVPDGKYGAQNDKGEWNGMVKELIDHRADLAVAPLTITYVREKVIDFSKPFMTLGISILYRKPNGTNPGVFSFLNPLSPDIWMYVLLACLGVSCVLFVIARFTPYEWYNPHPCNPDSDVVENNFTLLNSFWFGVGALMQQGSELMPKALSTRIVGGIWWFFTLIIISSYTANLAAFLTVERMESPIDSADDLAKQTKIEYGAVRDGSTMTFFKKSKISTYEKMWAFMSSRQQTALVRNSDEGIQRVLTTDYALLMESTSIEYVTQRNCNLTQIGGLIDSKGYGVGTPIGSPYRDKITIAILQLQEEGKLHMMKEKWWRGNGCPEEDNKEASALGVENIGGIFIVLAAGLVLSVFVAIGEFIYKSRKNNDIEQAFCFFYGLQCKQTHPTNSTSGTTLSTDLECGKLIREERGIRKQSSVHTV
Experiment: Antagonist activity at human recombinant GLUK5 receptor expressed in HEK293 cells assessed as inhibition of glutamate-stimulated calcium influx by FLIPR assay
Type: functional, cell-based
Answer each item with its documented Kb.
Write the value in nM as a bare number.

Value of measured Kb for the entry Cc1cn(C[C@H](N)C(=O)O)c(=O)n(Cc2cc(-c3ccccc3)sc2C(=O)O)c1=O : 7

Value of measured Kb for the entry Cc1cn(C[C@H](N)C(=O)O)c(=O)n(Cc2ccsc2C(=O)O)c1=O : 10

Value of measured Kb for the entry N[C@@H](Cn1ccc(=O)n(Cc2ccsc2C(=O)O)c1=O)C(=O)O : 120

Value of measured Kb for the entry N[C@@H](Cn1ccc(=O)n(Cc2ccccc2C(=O)O)c1=O)C(=O)O : 600
